Attribution: ChEMBL document CHEMBL3616461

assay: Cytotoxicity against rat macrophages by MTS/PMS assay; assay type: cell-based; settings: macrophage
valueKind: Activity

Please review the following examples before continuing.
> print(dat)
                             moleculesmiles  valuemeasured
1  O=C(Nc1ccc(Cl)cc1)c1cnn(-c2ccccc2)c1NC(=O)C(F)(F)F      Non-toxic
2  CC(=O)Nc1c(C(=O)Nc2nc(-c3ccc(Cl)cc3)cs2)cnn1-c1ccccc1      Non-toxic
3  Cc1ccnc(-n2c(C)nc3c(cnn3-c3ccccc3)c2=O)c1      Non-toxic
4  CC(=O)Nc1c(C(=O)Nc2ccc(Br)cn2)cnn1-c1ccccc1      Non-toxic
5  Cc1nc2c(cnn2-c2ccccc2)c(=O)n1-c1ccc([N+](=O)[O-])cn1      Non-toxic

Now for a further compound.
Item: Cc1cc(C)c(-n2c(C)nc3c(cnn3-c3ccccc3)c2=O)c(C)c1 | Activity: Non-toxic
